# assayedTarget: TNFα trimer (Homo sapiens)
# assayRemarks: TNFα FP Competitive Binding Assay
# particulars: TNFα FP competitive binding assay; class symbols A/B/C; read-out: TNF IC50
measurementKind: IC50

Problem: Which IC50 value belongs to CC(O)(CC1CC1)c1ncc(-c2ccc3nc4n(c3n2)[C@@H](c2ccccc2)CC4)cn1 (some centres unmarked) ?
Solution: 1 to 10 µM

Problem: Now this one: COc1ccccc1[C@@H]1CCCc2nc3ccc(-c4cnc(C(C)(C)O)nc4)cn3c21
Solution: 1 to 10 µM

Problem: Now this one: OCC1(F)CCN(c2ncc(-c3ccc4nc5n(c4n3)C3(CCc4ccccc43)COC5)cn2)CC1 (centres unmarked)
Solution: < 1 µM

Problem: Now this one: CNCC(=O)N1CC=C(c2ccc3nc4n(c3n2)C2(COC4)COc3ccccc32)CC1 (centres unmarked)
Solution: 1 to 10 µM

Problem: Now this one: c1ccc(C2COCc3nc4ccc(-c5cnc6ccoc6c5)cc4n32)cc1 (centres unmarked)
Solution: 1 to 10 µM

###

# assayedTarget: TNFα trimer (Homo sapiens, UniProt P01375)
# Sequence (P01375 77-233 limits assumed): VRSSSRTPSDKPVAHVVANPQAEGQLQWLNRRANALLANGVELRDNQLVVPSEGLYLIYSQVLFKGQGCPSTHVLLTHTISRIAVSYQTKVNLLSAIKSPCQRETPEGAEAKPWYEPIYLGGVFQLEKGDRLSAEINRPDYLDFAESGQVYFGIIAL
# assayRemarks: TNFα FP Competitive Binding Assay
# particulars: TNFα FP competitive binding assay; class symbols A/B/C; read-out: TNF IC50
measurementKind: IC50

CC(C)(O)COc1cc(-c2ccc3nc4n(c3n2)[C@@H](c2ccccc2)CC4)ccn1 :: 1000 to 10000 nM
OC1CCN(c2ncc(-c3ccc4nc5n(c4n3)C(c3cccc(F)c3)COC5)cn2)CC1 (centres unmarked) :: < 1000 nM
C[C@H]1CN(c2ncc(-c3ccc4nc5n(c4n3)C3(COC5)COc4ccccc43)cn2)CCN1C(=O)COC(C)(C)C (some centres unmarked) :: 1000 to 10000 nM
c1ccc([C@H]2COCc3nc4ccc(-c5cnc(N6CCOCC6)nc5)nc4n32)cc1 :: < 1000 nM
c1ccc([C@H]2CCCc3nc4ccc(-c5cnc(N6CCOCC6)nc5)cc4n32)cc1 :: < 1000 nM

Problem: Which IC50 value belongs to COc1ccccc1[C@H]1CCc2nc3ccc(-c4cnc(N5CCC(O)CC5)nc4)nc3n21 ?
Solution: < 1000 nM

Problem: Now this one: CC(C)(O)c1ncc(-c2ccc3nc4n(c3n2)C2(CCOc3ccccc32)COC4)cn1 (centres unmarked)
Solution: 1000 to 10000 nM

###

# assayedTarget: TNFα trimer (Homo sapiens, UniProt P01375)
# assayRemarks: TNFα FP Competitive Binding Assay
# particulars: TNFα FP competitive binding assay; class symbols A/B/C; read-out: TNF IC50
pIC50: −log10 of the molar value.
Measured pIC50 by item

// worked examples, pIC50 included
FC(F)(F)COc1ccc(-c2ccc3nc4n(c3c2)C(c2ccccc2)COC4)cn1 (centres unmarked) :: 5.00 to 6.00
Fc1cccc(C2COCc3nc4ccc(-c5cnc(N6CCCOCC6)nc5)cc4n32)c1 (centres unmarked) :: > 6.00
Cc1ccc(C)c([C@H]2CCc3nc4ccc(-c5cnc(C(C)(C)O)nc5)cc4n32)c1 :: > 6.00
c1ccc(C2COCc3nc4ccc(-c5ccc(NCCN6CCOCC6)nc5)cc4n32)cc1 (centres unmarked) :: 4.00 to 5.00
C[C@H]1CN(C(=O)COC(C)(C)C)CCN1c1ncc(-c2ccc3nc4n(c3n2)C2(COC4)COc3ccccc32)cn1 (some centres unmarked) :: 5.00 to 6.00
COc1ccccc1C1CCCc2nc3ccc(-c4cnc(N5CCC(F)(CO)CC5)nc4)cn3c21 (centres unmarked) :: > 6.00

Problem: Which pIC50 value belongs to C[C@@H]1CN(C(=O)COC(C)(C)C)CCN1c1ncc(-c2ccc3nc4n(c3n2)C2(COC4)COc3ccccc32)cn1 (some centres unmarked) ?
Solution: 5.00 to 6.00
